assayed system: Cytochrome P450 2D6 (Homo sapiens)
Sequence (P10635 whole entry): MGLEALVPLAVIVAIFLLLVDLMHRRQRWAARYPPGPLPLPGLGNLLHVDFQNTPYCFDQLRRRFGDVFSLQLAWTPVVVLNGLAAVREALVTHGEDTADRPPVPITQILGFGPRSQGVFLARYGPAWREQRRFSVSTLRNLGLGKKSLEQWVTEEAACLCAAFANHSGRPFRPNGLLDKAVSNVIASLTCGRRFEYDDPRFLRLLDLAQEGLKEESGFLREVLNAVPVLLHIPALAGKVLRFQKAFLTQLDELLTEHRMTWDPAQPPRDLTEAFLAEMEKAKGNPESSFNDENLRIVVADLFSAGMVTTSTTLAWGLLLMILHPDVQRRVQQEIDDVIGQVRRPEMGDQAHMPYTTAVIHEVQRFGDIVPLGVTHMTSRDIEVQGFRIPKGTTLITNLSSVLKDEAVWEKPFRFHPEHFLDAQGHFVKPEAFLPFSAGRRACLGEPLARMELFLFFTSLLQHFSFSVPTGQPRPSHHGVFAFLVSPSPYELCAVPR
measured quantity: IC50

CC#C[C@@H](CC(=O)O)c1ccc(OC[C@H]2COc3ccc(Cl)cc3O2)cc1 tested on Cytochrome P450 2D6 (Homo sapiens) gave IC50: > 100 µM

====

assayed system: Free fatty acid receptor 1 (Homo sapiens, UniProt O14842)
Sequence (O14842 whole entry): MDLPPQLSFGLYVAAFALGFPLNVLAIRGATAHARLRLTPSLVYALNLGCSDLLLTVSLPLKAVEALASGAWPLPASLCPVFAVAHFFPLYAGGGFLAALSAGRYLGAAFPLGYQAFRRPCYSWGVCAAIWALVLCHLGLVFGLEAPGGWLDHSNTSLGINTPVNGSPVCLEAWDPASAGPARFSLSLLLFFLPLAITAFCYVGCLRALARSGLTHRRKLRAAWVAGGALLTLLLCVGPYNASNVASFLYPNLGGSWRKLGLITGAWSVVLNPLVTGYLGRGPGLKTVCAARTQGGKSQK
test details: Agonist activity at human GPR40 expressed in human HEK293 cells assessed as increase in intracellular calcium flux after 10 mins by fluorescence assay
Assay type: functional, cell-based
# EC50 values compiled below

The following compounds have reported results that may help.
O=C(O)CCc1ccc(OCC2COc3ccc(Cl)cc3O2)cc1F (stereo not given) ... 830 nM
CC#C[C@@H](CC(=O)O)c1ccc(OC[C@H]2COc3ccc(OC)cc3O2)cc1 ... 130 nM
CCCCC/C=C\C/C=C\CCCCCCCC(=O)O ... 4800 nM
O=C(O)CC(c1ccc(OCC2COc3ccc(Cl)cc3O2)cc1)c1cnco1 (stereo not given) ... 1030 nM

Record CC#C[C@@H](CC(=O)O)c1ccc(OC[C@H]2COc3ccc(C(C)=O)cc3O2)cc1 , field EC50: > 30000 nM

These entries and their values trace back to ChEMBL document CHEMBL4261634.
